pIC50: −log10 of the molar value.
Measure Name: pIC50

Ask: Param readout= pIC50; system= UniProt:P08684; entry= COc1ccc(/C=C2\N=C(C)N(c3ccc(CC(=O)NCc4ccccc4)cc3)C2=O)cc1 [Compound 4c] ; returns value.
Sequence (P08684 whole entry): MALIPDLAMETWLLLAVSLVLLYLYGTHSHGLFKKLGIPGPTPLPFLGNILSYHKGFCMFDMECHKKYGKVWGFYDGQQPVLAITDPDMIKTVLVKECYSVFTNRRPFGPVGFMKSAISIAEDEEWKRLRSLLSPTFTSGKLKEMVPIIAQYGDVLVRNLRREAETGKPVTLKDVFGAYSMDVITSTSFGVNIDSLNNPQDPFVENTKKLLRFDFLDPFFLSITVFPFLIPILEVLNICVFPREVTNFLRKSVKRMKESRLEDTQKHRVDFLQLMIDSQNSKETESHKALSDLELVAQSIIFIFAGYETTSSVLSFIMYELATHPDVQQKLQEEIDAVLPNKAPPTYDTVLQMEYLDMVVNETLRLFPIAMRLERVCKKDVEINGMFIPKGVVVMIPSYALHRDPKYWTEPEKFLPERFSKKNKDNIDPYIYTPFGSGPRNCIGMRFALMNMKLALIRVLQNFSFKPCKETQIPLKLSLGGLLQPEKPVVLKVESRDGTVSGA
Result: ≤ 5.00

---

Experiment: Maximum kinetic aqueous solubility
Assay type: physicochemical
Conditions: phosphate buffer, pH 7.4, aqueous buffer, kinetic from dmso stock, Max solubility in 2% DMSO/PBS, kinetic, pH 7.4
Measure Name: solubility at 90 min
Your reply should be a number followed by the unit it is expressed in.

Ask: # solubility at 90 min lookup, item COc1ccc(/C=C2\N=C(C)N(c3ccc(CC(=O)NCc4ccccc4)cc3)C2=O)cc1 [Compound 4c]
Result: 19.9 µM

These data points were gathered from paper PMC8766756.
